Test system: SEM cells
Assay summary: cell viability relative to DMSO control; higher = less cytotoxic
Test parameters: RPMI 5 mM glucose + 10% dialyzed FBS; 48 h; 0.569 µM
Mark each entry YES if its cell viability sits below 90%, and NO for all others.

Compound	Test target	Discrete label
C[C@](O)(CS(=O)(=O)c1ccc(F)cc1)C(=O)Nc1ccc(C#N)c(C(F)(F)F)c1	SEM cells	NO
COC\1=C(/OC)C(=O)\C(=C(C)/C1=O)CCCCCCCCCCO	SEM cells	NO
CNCC(O)c1ccc(O)cc1 (configuration not stated)	SEM cells	NO

Problem: For the compound "O=C1[C@H](Cc2ccc(O)cc2)N2C(=O)CCN(C(=O)NCc3ccccc3)[C@H]2CN1Cc1cccc2ccccc12" , is cell viability under 90%? YES

Problem: For the compound "Cc1c(C)n(Cc2ccc(-c3ccccc3C(=O)O)cc2)c2ccc(C(=O)N[C@@H](C)c3ccc([N+](=O)[O-])cc3)cc12" , is cell viability under 90%? NO

Problem: For the compound "C[S+](=O)([O-])Nc1ccc([N+](=O)[O-])cc1Oc1ccccc1" , is cell viability under 90%? NO

Problem: For the compound "CNCCCC12CCC(c3ccccc31)c1ccccc12" , is cell viability under 90%? NO

Problem: For the compound "OC[C@H]1O[C@H]([C@H](O)[C@@H]1O)N2\C=C/C(=O)NC2=O" , is cell viability under 90%? NO

Problem: For the compound C[C@](Cc1c[nH]c2ccccc12)(NC(=O)OC1C2CC3CC(C2)CC1C3)C(=O)NC[C@H](NC(=O)CCC(=O)O)c1ccccc1 (some centres not stated) , is cell viability under 90%? NO

Problem: For the compound "NC1=C(Cl)C(=CC=N1)OC2=C(F)C=C(NC(=O)\C3=C\N\C=C(C3=O)\C4=CC=C(F)C=C4)C=C2" , is cell viability under 90%? YES

---

Tested on: SEM cells
Assay summary: cell viability relative to DMSO control; higher = less cytotoxic
Test parameters: HPLM + 10% dialyzed FBS; 48 h; 0.00234 µM
Measured quantity: cell viability (%)
Kindly provide the numeric value in % only, without the unit symbol.

Can you look up the measured cell viability of COC(=O)C[C@](O)(CCCC(C)(C)O)C(=O)O[C@@H]1C(OC)=CC23CCCN2CCc2cc4c(cc2[C@H]13)OCO4 (stereo partly drawn) for me? 103

Can you look up the measured cell viability of "O=C(C=CC#Cc1cccc(N[S+](=O)([O-])c2ccccc2)c1)NO" for me? 103

Can you look up the measured cell viability of "C[C@]12CC[C@H]3[C@@H](CC[C@H]4NC(=O)\C=C/[C@]34C)[C@@H]1CC[C@@H]2C(=O)NC5=CC(=CC=C5C(F)(F)F)C(F)(F)F" for me? 122

Can you look up the measured cell viability of "COC\1=C(/OC)C(=O)\C(=C(C)/C1=O)CCCCCCCCCCO" for me? 92

Can you look up the measured cell viability of "Clc1ccc(-c2nc3sccn3c2/C=N/OCc2ccc(Cl)c(Cl)c2)cc1" for me? 122

Can you look up the measured cell viability of "CC(C)(O)CC[C@@H](O)[C@](C)(O)[C@H]1CC[C@@]2(O)C/3=C/C(=O)[C@@H]4C[C@@H](O)[C@@H](O)C[C@]4(C)[C@H]3CC[C@]12C" for me? 107

Can you look up the measured cell viability of "C[C@@H](Oc1cc(-c2cnn(C3CCNCC3)c2)cnc1N)c1c(Cl)ccc(F)c1Cl" for me? 121

Can you look up the measured cell viability of "CCC1(c2ccccc2)C(=O)NCNC1=O" for me? 104

---

System: SEM cells
Assay summary: AUC of viability dose-response curve (% viability x log10 dose units); higher = less sensitive
Test parameters: HPLM + 10% dialyzed FBS; 48 h
Form field: AUC of viability dose-response curve (one value per entry).

Compound	Measured quantity	Reported value
C[S+](=O)([O-])c1cc(F)cc2c3c(n(Cc4ccc(Cl)cc4)c12)[C@@H](CC(=O)O)CC3	AUC of viability dose-response curve	477

Can you look up the measured AUC of viability dose-response curve of "COc1ccc2cc([C@H](C)C(=O)O)ccc2c1" for me? 412

Can you look up the measured AUC of viability dose-response curve of "N#CCNC(=O)c1ccc(-c2ccnc(Nc3ccc(N4CCOCC4)cc3)n2)cc1" for me? 405

---

System: SEM cells
Assay summary: cell viability relative to DMSO control; higher = less cytotoxic
Test parameters: HPLM + 10% dialyzed FBS; 48 h; 46.1 µM
Form field: cell viability (one value per entry).
Kindly provide the numeric value in % only, without the unit symbol.

Take a look at these entries with their results.
Compound	Test target	cell viability, %
CC1CNc2c(cccc2[S+](=O)([O-])N[C@@H](CCCNC(=N)N)C(=O)N2CC[C@@H](C)C[C@@H]2C(=O)O)C1 (stereo partly specified)	SEM cells	95.6
FC1=C(C=C(C\C2=N\NC(=O)C3=C2C=CC=C3)C=C1)C(=O)N4CCN(CC4)C(=O)C5CC5	SEM cells	41.1
O=C(C=CC#Cc1cccc(N[S+](=O)([O-])c2ccccc2)c1)NO	SEM cells	4.02
CC[S+](=O)([O-])c1cccc(-c2cc(C(=O)NC3CCN(C)CC3)c(C)c3[nH]c4ncc(C)cc4c23)c1	SEM cells	8.97
CC(C)c1nc(CN(C)C(=O)N[C@H](C(=O)N[C@@H](Cc2ccccc2)C[C@H](O)[C@H](Cc2ccccc2)NC(=O)OCc2cncs2)C(C)C)cs1	SEM cells	74.4
COc1ccc(-c2ccc3ncc4c(c3c2)n(-c2ccc(N3CCNCC3)c(C(F)(F)F)c2)c(=O)n4C)cn1	SEM cells	2.31

Can you look up the measured cell viability of "N[S+]([O-])(=O)C1=CC=C(NC/2=C/C(=O)C3=CC=CC=C3C2=O)C=C1" for me? 71.3

Can you look up the measured cell viability of "CN1CCN(C2=Nc3cc(Cl)ccc3Nc3ccccc32)CC1" for me? 25.6

Can you look up the measured cell viability of "CCN1CCN(c2ccc(Nc3cc(N(C)C(=O)Nc4c(Cl)c(OC)cc(OC)c4Cl)ncn3)cc2)CC1" for me? 5.71

Can you look up the measured cell viability of COc1ccccc1OCC(O)COC(N)=O (stereo unspecified) for me? 89.1

Can you look up the measured cell viability of CC1=C(C)C(=O)C(C(CCCCCC(=O)O)c2ccccc2)=C(C)C1=O (stereo unspecified) for me? 41

Can you look up the measured cell viability of "COc1ccc([S+](=O)([O-])N(C(C)=O)c2ccccc2/C=C/c2cc[n+]([O-])cc2)cc1" for me? 23

Can you look up the measured cell viability of "Cc1cnn(C)c1C(=O)Nc1cc(Nc2ccc3c(/C=C/c4ccccn4)n[nH]c3c2)ccc1F" for me? 23.8

Can you look up the measured cell viability of "C[S+](=O)([O-])Nc1ccc([N+](=O)[O-])cc1Oc1ccccc1" for me? 62.9

Can you look up the measured cell viability of "COc1cc(OC2CCN(C)CC2)ccc1Nc1ncc2c(n1)n(C1CCCC1)c(=O)n2C" for me? 2.44

Can you look up the measured cell viability of "COc1ccc([C@@H]2CC(=O)c3c(O)cc(O[C@@H]4O[C@H](CO[C@@H]5O[C@@H](C)[C@H](O)[C@@H](O)[C@H]5O)[C@@H](O)[C@H](O)[C@H]4O)cc3O2)cc1O" for me? 74

---

Form field: cell viability (one value per entry).
System: P12-Ichikawa
Assay summary: cell viability relative to DMSO control; higher = less cytotoxic
Test parameters: HPLM + 10% dialyzed FBS; 48 h; 0.0632 µM
Kindly provide the numeric value in % only, without the unit symbol.

Take a look at these entries with their results.
> print(dat)
                                   compound   test.target  display.unit  reported.value
1  O=C(O)C1(Cc2cccc(Nc3nccs3)n2)CCC(Oc2cccc(Cl)c2F)CC1 (centres undefined)  P12-Ichikawa             %             115
2  CCN1CCN(c2ccc(Nc3cc(N(C)C(=O)Nc4c(Cl)c(OC)cc(OC)c4Cl)ncn3)cc2)CC1  P12-Ichikawa             %             106
3  Cc1onc(-c2ccccc2Cl)c1C(=O)N[C@@H]1C(=O)N2[C@@H]1SC(C)(C)[C@@H]2C(=O)[O-]  P12-Ichikawa             %             113

API: the following record is the query input.
Can you look up the measured cell viability of "C[S+](=O)([O-])Nc1ccc([N+](=O)[O-])cc1Oc1ccccc1" for me? 112

---

Form field: cell viability (one value per entry).
System: SEM cells
Assay summary: cell viability relative to DMSO control; higher = less cytotoxic
Test parameters: RPMI 5 mM glucose + 10% FBS; 48 h; 0.569 µM
A bare number is not enough; add the unit after it.

Take a look at these entries with their results.
Structure smiles	cell viability
COC(=O)Nc1nc2cc(C(=O)c3ccccc3)ccc2[nH]1	59.3%
COc1ccc([C@@H]2CC(=O)c3c(O)cc(O[C@@H]4O[C@H](CO[C@@H]5O[C@@H](C)[C@H](O)[C@@H](O)[C@H]5O)[C@@H](O)[C@H](O)[C@H]4O)cc3O2)cc1O	115%

API: the following record is the query input.
Can you look up the measured cell viability of "CCN1CCN(c2ccc(Nc3cc(N(C)C(=O)Nc4c(Cl)c(OC)cc(OC)c4Cl)ncn3)cc2)CC1" for me? 73.4%
